- Tested system: Insulin-like growth factor 1 receptor (IGF1R) (UniProt P08069 31-1367, limits assumed)
- Sequence (P08069 31-1367 limits assumed): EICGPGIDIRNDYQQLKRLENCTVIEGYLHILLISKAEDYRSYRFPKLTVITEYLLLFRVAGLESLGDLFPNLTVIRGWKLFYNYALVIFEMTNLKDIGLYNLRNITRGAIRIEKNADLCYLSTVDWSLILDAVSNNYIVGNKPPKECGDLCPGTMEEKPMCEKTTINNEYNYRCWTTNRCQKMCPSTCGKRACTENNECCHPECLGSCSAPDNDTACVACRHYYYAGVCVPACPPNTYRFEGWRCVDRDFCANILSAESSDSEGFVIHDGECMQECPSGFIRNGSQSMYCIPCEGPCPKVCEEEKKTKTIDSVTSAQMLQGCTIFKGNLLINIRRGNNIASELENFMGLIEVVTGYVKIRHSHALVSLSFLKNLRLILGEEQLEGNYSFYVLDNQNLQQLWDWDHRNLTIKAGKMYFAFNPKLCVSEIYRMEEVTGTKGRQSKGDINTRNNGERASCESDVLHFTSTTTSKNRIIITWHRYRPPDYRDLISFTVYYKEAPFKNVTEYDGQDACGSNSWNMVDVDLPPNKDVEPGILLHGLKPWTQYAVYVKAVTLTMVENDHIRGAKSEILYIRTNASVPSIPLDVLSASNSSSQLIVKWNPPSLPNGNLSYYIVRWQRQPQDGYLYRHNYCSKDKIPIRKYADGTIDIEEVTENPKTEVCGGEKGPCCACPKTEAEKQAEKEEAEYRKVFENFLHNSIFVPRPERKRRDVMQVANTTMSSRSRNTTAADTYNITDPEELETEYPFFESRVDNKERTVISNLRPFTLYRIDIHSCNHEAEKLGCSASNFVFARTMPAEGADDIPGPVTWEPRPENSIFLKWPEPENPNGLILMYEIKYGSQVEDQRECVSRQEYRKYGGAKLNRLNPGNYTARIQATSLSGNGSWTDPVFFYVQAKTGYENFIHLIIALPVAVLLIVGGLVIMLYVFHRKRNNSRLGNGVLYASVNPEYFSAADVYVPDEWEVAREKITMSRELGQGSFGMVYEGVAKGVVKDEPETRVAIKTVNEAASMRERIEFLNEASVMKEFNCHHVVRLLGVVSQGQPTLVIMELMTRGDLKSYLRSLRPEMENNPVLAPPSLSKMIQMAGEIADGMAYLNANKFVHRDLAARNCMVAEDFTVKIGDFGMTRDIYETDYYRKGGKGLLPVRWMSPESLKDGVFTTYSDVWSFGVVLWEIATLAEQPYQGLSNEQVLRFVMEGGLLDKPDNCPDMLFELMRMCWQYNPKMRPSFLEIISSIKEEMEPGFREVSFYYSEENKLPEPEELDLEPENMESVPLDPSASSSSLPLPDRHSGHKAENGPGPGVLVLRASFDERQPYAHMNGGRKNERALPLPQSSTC
- Test name: cell-based or functional assay
Where no end group is shown, it is not given here. [ ]: non-standard residue; d: D form. The star is where a group is joined. Palmitoyl = CCCCCCCCCCCCCCCC(=O)*
Recorded TGI (µM), MTT assay, MCF-7 cells, one value per entry.
Please reply with the bare figure in µM and do not write the unit itself.

- Ac-[dY][dL][dV]G[dN]G[dL][dR][dS][dN][dN][dR][dK](Palmitoyl) [peptide 18 (Ac-YLVGNGLRSNNRK-(ε-Pal)), retro-inverso version of peptide 27]: 0.4

Now for a further binder.
Reported TGI (µM), MTT assay, MCF-7 cells ( Palmitoyl-SRLGNGVLY-NH2 (SMILES CCCCCCCCCCCCCCCC(=O)N[C@@H](CO)C(=O)N[C@@H](CCCNC(=N)N)C(=O)N[C@@H](CC(C)C)C(=O)NCC(=O)N[C@@H](CC(N)=O)C(=O)NCC(=O)N[C@H](C(=O)N[C@@H](CC(C)C)C(=O)N[C@@H](Cc1ccc(O)cc1)C(N)=O)C(C)C) [peptide 19 (Pal-SRLGNGVLY-NH2)] ) = 2
